All figures here come from the supplement of paper PMC11061612.

Measured combination Emax, listed per entry for reference.
System: IGROV-1 (Ovarian Carcinoma)
Experiment: combination Emax (second highest fraction inhibited in the dose matrix, 72 h); higher = more inhibition; extreme values may be limits of the assay
measured.metric: combination Emax

- CN(CCO)CC[C@H](CSc1ccccc1)Nc1ccc(S(=O)(=O)NC(=O)c2ccc(N3CCC([C@@H](O)c4ccccc4-c4ccc(Cl)cc4)CC3)cc2)cc1S(=O)(=O)C(F)(F)F [AZD4320] + C=CCn1c(=O)c2cnc(Nc3ccc(N4CCN(C)CC4)cc3)nc2n1-c1cccc(C(C)(C)O)n1 [AZD1775] (first compound max 1 µM, partner max 1 µM): 0.894
- Cn1cnc2c(F)c(Nc3ccc(Br)cc3Cl)c(C(=O)NOCCO)cc21 [Selumetinib] + C[C@@H]1COCCN1C2=NC(=NC(=C2)C3(CC3)[S@](=N)(=O)C)C4=C5C=CNC5=NC=C4 [AZD6738] (first compound max 10 µM, 7x7, partner max 10 µM): 0.818
- COc1cccc2c1C(=O)c1c(O)c3c(c(O)c1C2=O)C[C@@](O)(C(=O)CO)C[C@@H]3O[C@H]1C[C@H](N)[C@H](O)[C@H](C)O1 [Doxorubicin] + Cc1cc2ncnn2cc1Nc1ncc2c(n1)n(C1CCOCC1)c(=O)n2C [AZD7648] (first compound max 1 µM, 7x7, partner max 10 µM): 0.611
- Cc1cc2ncnn2cc1Nc1ncc2c(n1)n(C1CCOCC1)c(=O)n2C [AZD7648] + C[C@@H]1COCCN1C2=NC(=NC(=C2)C3(CC3)[S@](=N)(=O)C)C4=C5C=CNC5=NC=C4 [AZD6738] (first compound max 10 µM, 7x7, partner max 10 µM): 0.66
- Cc1c2c(nn1C)CSCc1cc(n(C)n1)CSc1cc(c3ccccc3c1)OCCCc1c(C(=O)O)n(C)c3c-2c(Cl)ccc13 [AZD5991] + Cc1cc2ncnn2cc1Nc1ncc2c(n1)n(C1CCOCC1)c(=O)n2C [AZD7648] (first compound max 1 µM, 7x7, partner max 10 µM): 0.625

----------
System: NCI-H1435 (Non-Small Cell Lung Carcinoma)
Test: Bliss excess, mean over the matrix (fraction); higher = more synergy
measured.metric: Bliss excess

* CC1(C)CCC(CN2CCN(c3ccc(C(=O)NS(=O)(=O)c4ccc(NCC5CCOCC5)c([N+](=O)[O-])c4)c(Oc4cnc5[nH]ccc5c4)c3)CC2)=C(c2ccc(Cl)cc2)C1 [Venetoclax] + C=CCn1c(=O)c2cnc(Nc3ccc(N4CCN(C)CC4)cc3)nc2n1-c1cccc(C(C)(C)O)n1 [AZD1775] (first compound max 1 µM, partner max 1 µM) | -0.0029
* CN(C)CCCOc1ccc(-c2ccc3ncc4c(c3c2)n(C2CCOCC2)c(=O)n4C)cn1 [AZD0156] + C[C@@H]1COCCN1C2=NC(=NC(=C2)C3(CC3)[S@](=N)(=O)C)C4=C5C=CNC5=NC=C4 [AZD6738] (first compound max 1 µM, 7x7, partner max 10 µM) | -0.0134

----------
Measured combination Emax, listed per entry for reference.
Tested on: NCI-H1975 (Lung Adenocarcinoma)
Test: combination Emax (second highest fraction inhibited in the dose matrix, 72 h); higher = more inhibition; extreme values may be limits of the assay
measured.metric: combination Emax

* Cn1cnc2c(F)c(Nc3ccc(Br)cc3Cl)c(C(=O)NOCCO)cc21 [Selumetinib] + CC(C)n1c(=O)n(C)c2cnc3cc(F)c(-c4ccc(OCCCN5CCCCC5)nc4)cc3c21 [AZD1390] (first compound max 10 µM, 7x7, partner max 0.3 µM) | 0.342
* CC1(C)CCC(CN2CCN(c3ccc(C(=O)NS(=O)(=O)c4ccc(NCC5CCOCC5)c([N+](=O)[O-])c4)c(Oc4cnc5[nH]ccc5c4)c3)CC2)=C(c2ccc(Cl)cc2)C1 [Venetoclax] + Cc1cc2ncnn2cc1Nc1ncc2c(n1)n(C1CCOCC1)c(=O)n2C [AZD7648] (first compound max 1 µM, 7x7, partner max 10 µM) | 0.392
* COc1nnc2ccc(N3CCC(c4ccc(OCCN5CCN(C)C(=O)[C@H]5C)cc4)CC3)nn12 [AZD5153] + CCN(CCO)CCCOc1ccc2c(Nc3cc(CC(=O)Nc4cccc(F)c4)[nH]n3)ncnc2c1 [AZD2811] (first compound max 1 µM, 7x7, partner max 1 µM) | 0.781
* CN(CCO)CC[C@H](CSc1ccccc1)Nc1ccc(S(=O)(=O)NC(=O)c2ccc(N3CCC([C@@H](O)c4ccccc4-c4ccc(Cl)cc4)CC3)cc2)cc1S(=O)(=O)C(F)(F)F [AZD4320] + C[C@@H]1COCCN1C2=NC(=NC(=C2)C3(CC3)[S@](=N)(=O)C)C4=C5C=CNC5=NC=C4 [AZD6738] (first compound max 1 µM, 7x7, partner max 10 µM) | 0.481

----------
System: OVKATE (Ovarian Carcinoma)
Assay: Bliss excess, mean over the matrix (fraction); higher = more synergy
Measured Bliss excess, listed per entry for reference.
measured.metric: Bliss excess

• Cc1cc2ncnn2cc1Nc1ncc2c(n1)n(C1CCOCC1)c(=O)n2C [AZD7648] + C=CCn1c(=O)c2cnc(Nc3ccc(N4CCN(C)CC4)cc3)nc2n1-c1cccc(C(C)(C)O)n1 [AZD1775] (first compound max 10 µM, partner max 1 µM) = -0.001
• C=CCn1c(=O)c2cnc(Nc3ccc(N4CCN(C)CC4)cc3)nc2n1-c1cccc(C(C)(C)O)n1 [AZD1775] + O=C(c1cc(Cc2n[nH]c(=O)c3ccccc23)ccc1F)N1CCN(C(=O)C2CC2)CC1 [Olaparib] (first compound max 1 µM, partner max 10 µM) = -0.0316
• C[C@@H](c1ccc2nccn2c1)n1nnc2ncc(-c3cnn(C)c3)nc21 [Savolitinib] + CC1(C)CCC(CN2CCN(c3ccc(C(=O)NS(=O)(=O)c4ccc(NCC5CCOCC5)c([N+](=O)[O-])c4)c(Oc4cnc5[nH]ccc5c4)c3)CC2)=C(c2ccc(Cl)cc2)C1 [Venetoclax] (first compound max 1 µM, 7x7, partner max 1 µM) = -0.0495
• CS(=O)(=O)CCNCc1ccc(-c2ccc3ncnc(Nc4ccc(OCc5cccc(F)c5)c(Cl)c4)c3c2)o1 [Lapatinib] + Cn1cnc2c(F)c(Nc3ccc(Br)cc3Cl)c(C(=O)NOCCO)cc21 [Selumetinib] (first compound max 10 µM, 7x7, partner max 10 µM) = -0.0514

----------
System: HT-3 (Cervical Carcinoma)
Experiment: combination Emax (second highest fraction inhibited in the dose matrix, 72 h); higher = more inhibition; extreme values may be limits of the assay
measured.metric: combination Emax

- CN(C)CCCOc1ccc(-c2ccc3ncc4c(c3c2)n(C2CCOCC2)c(=O)n4C)cn1 [AZD0156] + O=C(c1cc(Cc2n[nH]c(=O)c3ccccc23)ccc1F)N1CCN(C(=O)C2CC2)CC1 [Olaparib] (first compound max 3 µM, partner max 3 µM): 0.321
- COc1nnc2ccc(N3CCC(c4ccc(OCCN5CCN(C)C(=O)[C@H]5C)cc4)CC3)nn12 [AZD5153] + CCN(CCO)CCCOc1ccc2c(Nc3cc(CC(=O)Nc4cccc(F)c4)[nH]n3)ncnc2c1 [AZD2811] (first compound max 1 µM, 7x7, partner max 1 µM): 0.332
- Cc1cc2ncnn2cc1Nc1ncc2c(n1)n(C1CCOCC1)c(=O)n2C [AZD7648] + O=C(c1cc(Cc2n[nH]c(=O)c3ccccc23)ccc1F)N1CCN(C(=O)C2CC2)CC1 [Olaparib] (first compound max 10 µM, 7x7, partner max 10 µM): 0.0499
- CCN(CCO)CCCOc1ccc2c(Nc3cc(CC(=O)Nc4cccc(F)c4)[nH]n3)ncnc2c1 [AZD2811] + C=CCn1c(=O)c2cnc(Nc3ccc(N4CCN(C)CC4)cc3)nc2n1-c1cccc(C(C)(C)O)n1 [AZD1775] (first compound max 1 µM, partner max 1 µM): 0.241
- CC1(C)CCC(CN2CCN(c3ccc(C(=O)NS(=O)(=O)c4ccc(NCC5CCOCC5)c([N+](=O)[O-])c4)c(Oc4cnc5[nH]ccc5c4)c3)CC2)=C(c2ccc(Cl)cc2)C1 [Venetoclax] + Cc1cc2ncnn2cc1Nc1ncc2c(n1)n(C1CCOCC1)c(=O)n2C [AZD7648] (first compound max 1 µM, 7x7, partner max 10 µM): 0.135
- COc1cccc(OCCCN)c1-c1cc(Nc2cnc(C#N)cn2)n[nH]1 [Prexasertib] + Cc1cc2ncnn2cc1Nc1ncc2c(n1)n(C1CCOCC1)c(=O)n2C [AZD7648] (first compound max 1 µM, 7x7, partner max 10 µM): 0.388
- CN(CCO)CC[C@H](CSc1ccccc1)Nc1ccc(S(=O)(=O)NC(=O)c2ccc(N3CCC([C@@H](O)c4ccccc4-c4ccc(Cl)cc4)CC3)cc2)cc1S(=O)(=O)C(F)(F)F [AZD4320] + CN(C)CCCOc1ccc(-c2ccc3ncc4c(c3c2)n(C2CCOCC2)c(=O)n4C)cn1 [AZD0156] (first compound max 1 µM, 7x7, partner max 1 µM): 0.143
- C[C@@H]1COCCN1c1cc(C2([S@](C)(=N)=O)CC2)nc(-c2ccnc3[nH]ccc23)n1 [AZD6738] + O=C(c1cc(Cc2n[nH]c(=O)c3ccccc23)ccc1F)N1CCN(C(=O)C2CC2)CC1 [Olaparib] (first compound max 10 µM, 7x7, partner max 10 µM): 0.697
- CC1(C)CCC(CN2CCN(c3ccc(C(=O)NS(=O)(=O)c4ccc(NCC5CCOCC5)c([N+](=O)[O-])c4)c(Oc4cnc5[nH]ccc5c4)c3)CC2)=C(c2ccc(Cl)cc2)C1 [Venetoclax] + CCN(CCO)CCCOc1ccc2c(Nc3cc(CC(=O)Nc4cccc(F)c4)[nH]n3)ncnc2c1 [AZD2811] (first compound max 1 µM, 7x7, partner max 1 µM): 0.178
- NC1(C(=O)N[C@@H](CCO)c2ccc(Cl)cc2)CCN(c2ncnc3[nH]ccc23)CC1 [Capivasertib] + COc1nnc2ccc(N3CCC(c4ccc(OCCN5CCN(C)C(=O)[C@H]5C)cc4)CC3)nn12 [AZD5153] (first compound max 10 µM, 7x7, partner max 1 µM): 0.308
- CC1(C)CCC(CN2CCN(c3ccc(C(=O)NS(=O)(=O)c4ccc(NCC5CCOCC5)c([N+](=O)[O-])c4)c(Oc4cnc5[nH]ccc5c4)c3)CC2)=C(c2ccc(Cl)cc2)C1 [Venetoclax] + COc1cc(Nc2ncc3c(n2)-c2ccc(Cl)cc2C(c2c(F)cccc2OC)=NC3)ccc1C(=O)O [Alisertib] (first compound max 1 µM, 7x7, partner max 10 µM): 0.0652
- CN(CCO)CC[C@H](CSc1ccccc1)Nc1ccc(S(=O)(=O)NC(=O)c2ccc(N3CCC([C@@H](O)c4ccccc4-c4ccc(Cl)cc4)CC3)cc2)cc1S(=O)(=O)C(F)(F)F [AZD4320] + C1CN(CCC1(C(=O)N[C@@H](CCO)C2=CC=C(C=C2)Cl)N)C3=NC=NC4=C3C=CN4 [Capivasertib] (first compound max 1 µM, 7x7, partner max 3 µM): 0.0692
- COc1nnc2ccc(N3CCC(c4ccc(OCCN5CCN(C)C(=O)[C@H]5C)cc4)CC3)nn12 [AZD5153] + Cc1c2c(nn1C)CSCc1cc(n(C)n1)CSc1cc(c3ccccc3c1)OCCCc1c(C(=O)O)n(C)c3c-2c(Cl)ccc13 [AZD5991] (first compound max 1 µM, 7x7, partner max 1 µM): 0.911
